Numbers sourced from PubChem BioAssay (NCI).

Tested on: T-47D breast
protocol.description: NCI-60 one-dose screen, 48 h (100 = growth as untreated, 0 = no growth, -100 = all killed)
recorded.conditions: 10 µM unless noted
Compounds without any hit were thinned out: in the full panel of roughly 83,000, 20% have a hit.
Rule for this label: 1 means growth is less than 70%; -1 means growth is at least 70%.

{"compound": "COc1ccc(C2CC(=O)Oc3c(OC)c4c(c(OC)c32)OCO4)cc1 (stereo not given)", "assigned.label": -1}
{"compound": "CN(C)CC1C(=O)O[C@H]2[C@H]1CC/C(COC(=O)NCc1ccc(Cn3c(=O)sn(CCCI)c3=O)cc1)=C\\CC[C@@]1(C)O[C@@H]21 (stereo not given in full)", "assigned.label": 1}
{"compound": "CN1CCN(CC(=O)N(C)c2ccc(N=C(c3ccccc3)c3c(O)[nH]c4ccc([N+](=O)[O-])cc34)cc2)CC1", "assigned.label": -1}
{"compound": "Oc1ccc(C(c2ccc(O)cc2)c2ccc(Cl)cn2)cc1", "assigned.label": 1}
{"compound": "CCOC(=O)c1c(C)nc2c(c1N)C(=O)C(=O)N2CCc1ccc(OC)c(OC)c1", "assigned.label": 1}
{"compound": "CCOC(=O)/C=C1\\S/C(=N\\Nc2cc(=O)[nH]c3ccc(OC)cc23)N(c2ccccc2)C1=O", "assigned.label": -1}
{"compound": "CCCC[N+]1(C)CCN=C1Cc1ccccc1 (stereo not given)", "assigned.label": -1}
{"compound": "O=c1c2cccc3c(N4CCOCC4)ccc(c32)c2nc3ccccc3n12", "assigned.label": 1}
{"compound": "CNC1=C(Br)C(=O)c2c(C(=O)OC)c(C)nc(C)c2C1=O", "assigned.label": 1}
